TEST_DETAILS: Induction of ROS generation in CHOK1 cells at 10 uM using DCFH-DA by fluorescence assay relative to control
Assay type: cell-based, Cricetulus griseus
EXPERIMENTAL_CONDITIONS: chinese hamster, cho-k1, 10 µM
OUTCOME_MEASURE: Activity (%)

[in] Name the recorded Activity for COCCCN1C(/C=C/c2ccc(O)cc2)=CC(=O)CC1c1ccc(O)cc1 (stereo not drawn) .
[out] 91.7

[in] So what's the measured Activity for this one? O=C(/C=C/c1ccc(O)cc1)CC(=O)/C=C/c1ccc(O)cc1
[out] 107.9

[in] Data request, read-out Activity, for COc1cc(/C=C/C(=O)/C=C(/C=C/c2ccc(O)c(OC)c2)NCCO)ccc1O
[out] 90.9

---

TEST_DETAILS: Cytotoxicity against CHOK1 cells assessed as decrease in cell viability after 48 hrs by MTT assay
Type: toxicity, cell-based, Cricetulus griseus
EXPERIMENTAL_CONDITIONS: Chinese hamster, CHO-K1 cells
OUTCOME_MEASURE: IC50 at 48 h

Illustrative cases are given below, each with its answer.
[in] Find the recorded IC50 at 48 h belonging to COc1cc(/C=C/C2=CC(=O)CC(c3ccc(O)c(OC)c3)N2CCCO)ccc1O (stereo not drawn) and report it.
[out] > 100 µM

[in] Can you look up the measured IC50 at 48 h of O=C1C=C(/C=C/c2ccc(O)cc2)N(CCO)C(c2ccc(O)cc2)C1 (stereo not drawn) for me?
[out] > 100 µM

---
[in] Quick one: IC50 at 48 h of COCCCN1C(/C=C/c2ccc(O)cc2)=CC(=O)CC1c1ccc(O)cc1 (stereo not drawn) ?
[out] > 100 µM
